Target: Low-density lipoprotein receptor (Homo sapiens)
Experiment: Displacement of S-tagged Ac-[cMPRLRGC]c-NH2 from human DsRed2-fused LDLR expressed in CHO cells at 10 uM after 1 hr by FRET assay
Assay type: cell-based
*1 amine or outer side, *2 acyl side, *3 side chain or, on linkers, in order; H or OH if unused. Where a SMILES comes first, the peptide text is derived from it. Bridges are numbered along the chain shown (N, C = ends). [ ]: non-standard residue; d: D form. X1 = CSCC[C@@H](C(=O)[*:2])N(C[C@@H](CS[*:3])NC(C)=O)[*:1]
value type: inhibition (%)

Sample records with inhibition:
>  <compound>
CSCC[C@@H]1NC[C@H](NC(C)=O)CSSC[C@@H](C(N)=O)NC(=O)CNC(=O)[C@H](CCCNC(=N)N)NC(=O)[C@H](CC(C)C)NC(=O)[C@H](CCCNC(=N)N)NC(=O)[C@@H]2CCCN2C1=O (H-[X1]PRLRGC-NH2; disulfide 1-7)

>  <inhibition, %>
37

$$$$
>  <compound>
CSCC[C@@H]1NC(=O)[C@H](NC(C)=O)CSSC[C@@H](C(N)=O)NC(=O)CNC(=O)[C@H](CCCNC(=N)N)NC(=O)[C@H](CC(C)C)NC[C@H](CCCNC(=N)N)NC(=O)[C@@H]2CCCN2C1=O

>  <inhibition, %>
58

$$$$
>  <compound>
CSCC[C@H]1CN2CCC[C@H]2C(=O)N[C@@H](CCCNC(=N)N)C(=O)N[C@@H](CC(C)C)C(=O)N[C@@H](CCCNC(=N)N)C(=O)NCC(=O)N[C@H](C(N)=O)CSSC[C@@H](NC(C)=O)C(=O)N1

>  <inhibition, %>
33

$$$$
>  <compound>
CSCC[C@@H]1NC(=O)[C@H](NC(C)=O)CSSC[C@@H](C(N)=O)NC(=O)CNC(=O)[C@H](CCCNC(=N)N)NC(=O)[C@H](CC(C)C)NC(=O)[C@H](CCCNC(=N)N)NC(=O)CN(C)C1=O

>  <inhibition, %>
22

$$$$
>  <compound>
CC(=O)N[C@@H]1CSSC[C@@H](C(N)=O)NC(=O)CNC(=O)[C@H](CCCNC(=N)N)NC(=O)[C@H](CC(C)C)NC(=O)[C@H](CCCNC(=N)N)NC(=O)[C@@H]2CCCN2C(=O)[C@@H]2CSCN2C1=O

>  <inhibition, %>
0

$$$$
>  <compound>
CSCC[C@@H]1NC(=O)[C@H](NC(C)=O)C/C=C\C[C@@H](C(N)=O)NC(=O)CNC(=O)[C@H](CCCNC(=N)N)NC(=O)[C@H](CC(C)C)NC(=O)[C@H](CCCNC(=N)N)NC(=O)[C@@H]2CCCN2C1=O

>  <inhibition, %>
22

$$$$
>  <compound>
CSCC[C@@H]1NC(=O)[C@H](NC(C)=O)CSSC[C@@H](C(N)=O)NC(=O)CNC(=O)[C@H](CCCNC(=N)N)NC[C@H](CC(C)C)NC(=O)[C@H](CCCNC(=N)N)NC(=O)[C@@H]2CCCN2C1=O

>  <inhibition, %>
40

$$$$
>  <compound>
CSCC[C@@H]1NC(=O)[C@H](NC(C)=O)CNC(=N)NC[C@@H](C(N)=O)NC(=O)CNC(=O)[C@H](CCCNC(=N)N)NC(=O)[C@H](CC(C)C)NC(=O)[C@H](CCCNC(=N)N)NC(=O)[C@@H]2CCCN2C1=O

>  <inhibition, %>
0

$$$$

(I) CSCC[C@@H]1NC(=O)[C@H](NC(C)=O)CSSC[C@@H](C(N)=O)NC(=O)CNC(=O)[C@H](CCCN)NC(=O)[C@H](CC(C)C)NC(=O)[C@H](CCCNC(=N)N)NC(=O)[C@@H]2CCCN2C1=O
(II) CSCC[C@H](NC(=O)[C@@H]1CCCN1C(=O)[C@H]1CSSC[C@H](N)C(=O)NCC(=O)N[C@@H](CCCNC(=N)N)C(=O)N[C@@H](CC(C)C)C(=O)N[C@@H](CCCNC(=N)N)C(=O)N1)C(=O)NC(C)=O
(III) CSCC[C@@H]1NC(=O)[C@H](NC(C)=O)CSSC[C@@H](C(N)=O)NC(=O)CNC(=O)[C@H](CCCNC(=N)N)NC(=O)[C@H](CC(C)C)NC(=O)[C@H](CCCNC(=N)N)NC(=O)[C@@H]2c3ccccc3CCN2C1=O
(IV) CSCC[C@@H]1NC(=O)[C@H](NC(C)=O)Cc2cn(nn2)CC[C@@H](C(N)=O)NC(=O)CNC(=O)[C@H](CCCNC(=N)N)NC(=O)[C@H](CC(C)C)NC(=O)[C@H](CCCNC(=N)N)NC(=O)[C@@H]2CCCN2C1=O
(V) CSCC[C@@H]1NC(=O)[C@H](NC(C)=O)CSSC[C@@H](C(N)=O)NC(=O)[C@@H](C)NC(=O)[C@H](CCCNC(=N)N)NC(=O)[C@H](CC(C)C)NC(=O)[C@H](CCCNC(=N)N)NC(=O)[C@@H]2CCCN2C1=O
Order field: inhibition | Direction: descending (largest first) Please, when replying, give the labels in the order that was requested. V, II, III, IV, I
(V: 54%, II: 34%, III: 21%, IV: 13%, I: 0%)

Just for reference, ChEMBL document CHEMBL2086366 is where these values come from.
